Items are presented alongside their recorded T ½ rat in vivo.
# Method summary: Half-life in rat in vivo
Bridge positions count the residues as written; N and C are the ends. Square brackets hold non-standard residues; d marks the D form. Peptide text beside a SMILES is read from it. d(pGlu) = O=C1CC[C@H](C(=O)O)N1
Endpoint: T ½ rat in vivo (min)

1. CC[C@H](C)[C@@H]1NC(=O)[C@H](Cc2c[nH]c3ccccc23)NC(=O)[C@H](CCCCN)NC(=O)[C@@H](NC(=O)[C@H]2CCC(=O)N2)CSSC[C@@H](C(N)=O)NC(=O)[C@H](CCC(N)=O)NC1=O [Example 53, DpGlu-c(Cys-Lys-Trp-Ile-Gln-Cys)-NH2] ([d(pGlu)]CKWIQC-NH2; disulfide 2-7); 23.1
2. CC[C@H](C)[C@@H]1NC(=O)[C@H](Cc2c[nH]c3ccccc23)NC(=O)[C@H](CCCCN)NC(=O)[C@@H](NC(C)=O)CSSC[C@@H](C(N)=O)NC(=O)[C@H](CCC(N)=O)NC1=O [Example 55, Ac-c(Cys-Lys-Trp-Ile-Gln-Cys)-NH2] (Ac-CKWIQC-NH2; disulfide 1-6); 16.5
3. CC[C@H](C)[C@@H]1NC(=O)[C@H](Cc2c[nH]c3ccccc23)NC(=O)[C@H](CCCCN)NC(=O)[C@H](CCC(N)=O)NC(=O)[C@H](CCCCN)NC(=O)[C@@H]2CCCN2C(=O)[C@@H](NC(=O)[C@H](CC(=O)O)NC(=O)[C@H](CC(C)C)NC(C)=O)CSSC[C@@H](C(N)=O)NC(=O)[C@H](CCC(N)=O)NC1=O [Example 20] (Ac-LDCPKQKWIQC-NH2; disulfide 3-11); 4.7
4. CC[C@H](C)[C@@H]1NC(=O)[C@H](Cc2c[nH]c3ccccc23)NC(=O)[C@H](CCCCN)NC(=O)[C@@H](NC(=O)[C@H](CCC(N)=O)NC(C)=O)CSSC[C@@H](C(N)=O)NC(=O)[C@H](CCC(N)=O)NC1=O [Example 54, Ac-Gln-c(Cys-Lys-Trp-Ile-Gln-Cys)-NH2] (Ac-QCKWIQC-NH2; disulfide 2-7); 20.9

###

# Tested on: IL-8
# Method summary: In vitro chemotaxis, inhibition v IL-8
# Format: cell-based, human
# Set-up: concentration or dose not given beside the values
Bridge positions count the residues as written; N and C are the ends. Square brackets hold non-standard residues; d marks the D form. Peptide text beside a SMILES is read from it.
Items are presented alongside their recorded v IL-8 inhibition (%).
Endpoint: v IL-8 inhibition (%)

1) CC[C@H](C)[C@@H]1NC(=O)[C@H](Cc2c[nH]c3ccccc23)NC(=O)[C@H](CCCCN)NC(=O)[C@H](CCC(N)=O)NC(=O)[C@H](CCCCN)NC(=O)[C@@H](NC(=O)[C@@H]2CCCN2C(=O)[C@H](CC(=O)O)NC(=O)[C@H](CC(C)C)NC(C)=O)CSSC[C@@H](C(N)=O)NC(=O)[C@H](CCC(N)=O)NC1=O [Example 21] (Ac-LDPCKQKWIQC-NH2; disulfide 4-11); 96.3
2) CC[C@H](C)[C@@H]1NC(=O)[C@H](Cc2c[nH]c3ccccc23)NC(=O)[C@@H](CCCCN)NC(=O)[C@H](CCC(N)=O)NC(=O)[C@H](CCCCN)NC(=O)[C@@H]2CCCN2C(=O)[C@H](CC(=O)O)NC(=O)[C@H](CC(C)C)NC(=O)[C@@H](NC(C)=O)CSSC[C@@H](C(N)=O)NC(=O)[C@H](CCC(N)=O)NC1=O [Example 27] (Ac-CLDPKQ[dK]WIQC-NH2; disulfide 1-11); 91.0
3) CC[C@H](C)[C@@H]1NC(=O)[C@H](Cc2c[nH]c3ccccc23)NC(=O)[C@H](CCCCN)NC(=O)[C@H](CCC(N)=O)NC(=O)[C@H](CCCCN)NC(=O)[C@@H]2CCCN2C(=O)[C@H](CC(=O)O)NC(=O)[C@@H](NC(=O)[C@@H](N)CC(C)C)CSSC[C@@H](C(N)=O)NC(=O)[C@H](CCC(N)=O)NC1=O [Example 10] (H-LCDPKQKWIQC-NH2; disulfide 2-11); 102.2

###

# System: IL-8
# Method summary: In vitro chemotaxis, inhibition v IL-8
# Assay type: cell-based, human
# Parameters: concentration or dose not given beside the values
Bridge positions count the residues as written; N and C are the ends. Square brackets hold non-standard residues; d marks the D form. Peptide text beside a SMILES is read from it. Ac6c = NC1(C(=O)O)CCCCC1; Aoc = NCCCCCCCC(=O)O
# cutoff 30% applies to v IL-8 inhibition (%); >= gives condition met, < gives condition not met

1) CC[C@H](C)[C@@H]1NC(=O)[C@H](Cc2c[nH]c3ccccc23)NC(=O)[C@H](CCCCN)NC(=O)[C@H](CCC(N)=O)NC(=O)[C@@H](CCCCN)NC(=O)[C@@H]2CCCN2C(=O)[C@H](CC(=O)O)NC(=O)[C@H](CC(C)C)NC(=O)[C@@H](NC(C)=O)CSSC[C@@H](C(N)=O)NC(=O)[C@H](CCC(N)=O)NC1=O [Example 29] (Ac-CLDP[dK]QKWIQC-NH2; disulfide 1-11); condition met
2) CC[C@@H](C)[C@H]1NC(=O)[C@@H](CCC(N)=O)NC(=O)[C@H](N)CSSC[C@H](C(=O)N[C@@H](CC(=O)O)C(=O)NCCCCCCCC(=O)O)NC(=O)[C@@H](CC(C)C)NC(=O)[C@@H](CC(=O)O)NC(=O)[C@H]2CCCN2C(=O)[C@@H](CCCCN)NC(=O)[C@@H](CCC(N)=O)NC(=O)[C@@H](CCCCN)NC(=O)[C@@H](Cc2c[nH]c3ccccc23)NC1=O [Example 144] (H-[dC][dQ][dI][dW][dK][dQ][dK][dP][dD][dL][dC]D[Aoc]-OH; disulfide 1-11); condition not met
3) CC(=O)N[C@H]1CSSC[C@@H](C(N)=O)NC(=O)[C@H](CCC(N)=O)NC(=O)C2(CCCCC2)NC(=O)[C@H](Cc2c[nH]c3ccccc23)NC(=O)[C@H](CCCCN)NC(=O)[C@H](CCC(N)=O)NC(=O)[C@H](CCCCN)NC(=O)[C@@H]2CCCN2C(=O)[C@H](CC(=O)O)NC(=O)[C@H](CC(C)C)NC1=O [Example 155] (Ac-CLDPKQKW[Ac6c]QC-NH2; disulfide 1-11); condition not met
4) CC[C@H](C)[C@@H]1NC(=O)[C@@H](NC(=O)[C@H](Cc2c[nH]c3ccccc23)NC(=O)[C@H](CCCCN)NC(=O)[C@H](CCC(N)=O)NC(=O)[C@H](CCCCN)NC(=O)[C@@H]2CCCN2C(=O)[C@H](CC(=O)O)NC(=O)[C@@H](N)CC(C)C)CSSC[C@@H](C(N)=O)NC(=O)[C@H](CCC(N)=O)NC1=O [Example 14] (H-LDPKQKWCIQC-NH2; disulfide 8-11); condition not met
5) CC[C@H](C)[C@@H]1NC(=O)[C@H](Cc2c[nH]c3ccccc23)NC(=O)[C@H](CCCCN)NC(=O)[C@H](CCC(N)=O)NC(=O)[C@H](CCCCN)NC(=O)[C@@H]2CCCN2C(=O)[C@H](CC(=O)O)NC(=O)[C@H](CC(C)C)NC(=O)[C@H](N)CSSC[C@H](C(N)=O)NC(=O)[C@H](CCC(N)=O)NC1=O [Example 37] (H-[dC]LDPKQKWIQ[dC]-NH2; disulfide 1-11); condition not met

###

# Method summary: Half-life in rat in vivo
# Stated conditions: read-out: T ½ rat in vivo
Bridge positions count the residues as written; N and C are the ends. Square brackets hold non-standard residues; d marks the D form. Peptide text beside a SMILES is read from it. * marks the point of attachment. d(pGlu) = O=C1CC[C@H](C(=O)O)N1; Octanoyl = CCCCCCCC(=O)*
# cutoff 20 min applies to half-life; >= gives Yes, < gives No

1. CC[C@H](C)[C@@H]1NC(=O)[C@H](Cc2c[nH]c3ccccc23)NC(=O)[C@H](CCCCN)NC(=O)[C@@H](NC(=O)[C@H]2CCC(=O)N2)CSSC[C@@H](C(N)=O)NC(=O)[C@H](CCC(N)=O)NC1=O [Example 53, DpGlu-c(Cys-Lys-Trp-Ile-Gln-Cys)-NH2] ([d(pGlu)]CKWIQC-NH2; disulfide 2-7); No
2. CC(C)[C@H](NC(=O)[C@H](Cc1c[nH]c2ccccc12)NC(=O)OC(C)(C)C)C(=O)NC1CCC(=O)NC1=O (stereo partly drawn) [Example 164, BOC-Trp-Val-α-aminoglutaramide]; Yes
3. CC[C@H](C)[C@@H]1NC(=O)[C@H](Cc2c[nH]c3ccccc23)NC(=O)[C@@H](CCCCN)NC(=O)[C@H](CCC(N)=O)NC(=O)[C@H](CCCCN)NC(=O)[C@@H]2CCCN2C(=O)[C@H](CC(=O)O)NC(=O)[C@H](CC(C)C)NC(=O)[C@@H](NC(C)=O)CSSC[C@@H](C(N)=O)NC(=O)[C@H](CCC(N)=O)NC1=O [Example 27] (Ac-CLDPKQ[dK]WIQC-NH2; disulfide 1-11); Yes
4. CC[C@H](C)[C@@H]1NC(=O)[C@H](Cc2c[nH]c3ccccc23)NC(=O)[C@H](CCCCN)NC(=O)[C@@H](N)CSSC[C@@H](C(N)=O)NC(=O)[C@H](CCC(N)=O)NC1=O [Example 1, c(Cys-Lys-Trp-Ile-Gln-Cys)-NH2] (H-CKWIQC-NH2; disulfide 1-6); No
5. CC[C@H](C)[C@@H]1NC(=O)[C@H](Cc2c[nH]c3ccccc23)NC(=O)[C@H](CCCCN)NC(=O)[C@H](CCC(N)=O)NC(=O)[C@H](CCCCN)NC(=O)[C@@H]2CCCN2C(=O)[C@H](CC(=O)O)NC(=O)[C@H](CC(C)C)NC(=O)[C@@H](N)CSSC[C@@H](C(N)=O)NC(=O)[C@H](CCC(N)=O)NC1=O [Example 33] (H-CLDPKQKWIQC-NH2; disulfide 1-11); No
6. CC[C@H](C)[C@@H]1NC(=O)[C@H](Cc2c[nH]c3ccccc23)NC(=O)[C@H](CCCCN)NC(=O)[C@H](CCC(N)=O)NC(=O)[C@H](CCCCN)NC(=O)[C@H]2CCCN2C(=O)[C@H](CC(=O)O)NC(=O)[C@H](CC(C)C)NC(=O)[C@@H](NC(C)=O)CSSC[C@@H](C(N)=O)NC(=O)[C@H](CCC(N)=O)NC1=O [Example 30] (Ac-CLD[dP]KQKWIQC-NH2; disulfide 1-11); No
7. CC[C@H](C)[C@@H]1NC(=O)[C@H](Cc2c[nH]c3ccccc23)NC(=O)[C@H](CCCCN)NC(=O)[C@@H](NC(=O)[C@H](CCC(N)=O)NC(=O)[C@@H](N)CCCCN)CSSC[C@@H](C(N)=O)NC(=O)[C@H](CCC(N)=O)NC1=O [Example 48, Lys-Gln-c(Cys-Lys-Trp-Ile-Gln-Cys)-NH2] (H-KQCKWIQC-NH2; disulfide 3-8); No
8. CCCCCCCC(=O)NCCCC[C@H](NC(=O)[C@H](CC(=O)O)NC(=O)[C@H]1CSSC[C@@H](N)C(=O)N[C@H](CCC(N)=O)C(=O)N[C@H]([C@H](C)CC)C(=O)N[C@H](Cc2c[nH]c3ccccc23)C(=O)N[C@H](CCCCN)C(=O)N[C@H](CCC(N)=O)C(=O)N[C@H](CCCCN)C(=O)N2CCC[C@@H]2C(=O)N[C@H](CC(=O)O)C(=O)N[C@H](CC(C)C)C(=O)N1)C(=O)O [Example 148] (H-[dC][dQ][dI][dW][dK][dQ][dK][dP][dD][dL][dC]DK(Octanoyl)-OH; disulfide 1-11); Yes
